Source of measurements: paper PMC5445283

Target: alanine racemase Alr-2 (Aeromonas hydrophila, UniProt A0KL98)
Sequence (A0KL98 entry or part of it): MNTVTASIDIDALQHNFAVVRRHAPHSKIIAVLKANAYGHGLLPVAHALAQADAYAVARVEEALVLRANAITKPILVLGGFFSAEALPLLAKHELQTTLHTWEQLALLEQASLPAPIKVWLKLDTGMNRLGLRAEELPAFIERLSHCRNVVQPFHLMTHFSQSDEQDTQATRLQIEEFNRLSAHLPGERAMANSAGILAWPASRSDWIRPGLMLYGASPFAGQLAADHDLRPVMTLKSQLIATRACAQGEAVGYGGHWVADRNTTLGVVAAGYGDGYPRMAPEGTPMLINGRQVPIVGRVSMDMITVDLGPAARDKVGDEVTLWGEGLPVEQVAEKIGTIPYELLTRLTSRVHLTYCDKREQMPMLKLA
Assay: biochemical
Details: average values with standard deviations in parentheses; read-out: IC50 against Alr-2 with PLP
value.type: pIC50
Numbers only, as −log10 of the molar value.

Below, 4 compounds whose answers are already recorded.
O=C(O)CCc1ccccc1Nc1c2ccccc2nc2ccccc12 ... 4.75
N[C@@H]1CON=C1O [DCS, D-cycloserine, reference compound] ... 5.27
CCCCC1(C)C=CC(=C2C(=O)OC(=CC(=O)O)C2=O)O1 (centres unmarked) ... 5.05
Oc1cc2c(cc1O)C1c3ccc(O)c(O)c3OCC1(O)C2 (centres unmarked) ... 4.81

Here is another compound to look at.
The compound identified as CCCOC(=O)c1cc(O)c(O)c(O)c1 [Compound I-5, Propyl Gallate] registered its pIC50 at 5.07

###

These records show Ki for alanine racemase Alr-2 (Aeromonas hydrophila).
Numbers only, in µM.

O=C(O)Cc1cc(O)ccc1O ... 51.7

Now consider a different compound.
Kindly note the recorded Ki for Oc1ccc(O)cc1 [Compound I-6, Hydroquinone] , which is 212

###

Biological target: alanine racemase Alr-2 (Aeromonas hydrophila)
Assay: biochemical
I'd be grateful if you could share measured IC50 for these entries.
Give bare numbers, in µM.

O=C(O)Cc1cc(O)ccc1O ... 12.5
O=C1C=C2C(=CCOC2O)O1 (centres unmarked) ... 14.7
O=c1c(O)c(-c2ccc(O)c(O)c2)oc2cc(O)cc(O)c12 ... 15.5
Oc1ccc(CC2NCCc3cc(O)c(O)cc32)cc1 (centres unmarked) ... 14.3

Next item in the queue.
Value of IC50 reported for the compound Oc1ccc(O)cc1 [Compound I-6, Hydroquinone] is 18.5
